target: Sodium-dependent dopamine transporter (Homo sapiens, UniProt Q01959)
Sequence (Q01959 whole entry): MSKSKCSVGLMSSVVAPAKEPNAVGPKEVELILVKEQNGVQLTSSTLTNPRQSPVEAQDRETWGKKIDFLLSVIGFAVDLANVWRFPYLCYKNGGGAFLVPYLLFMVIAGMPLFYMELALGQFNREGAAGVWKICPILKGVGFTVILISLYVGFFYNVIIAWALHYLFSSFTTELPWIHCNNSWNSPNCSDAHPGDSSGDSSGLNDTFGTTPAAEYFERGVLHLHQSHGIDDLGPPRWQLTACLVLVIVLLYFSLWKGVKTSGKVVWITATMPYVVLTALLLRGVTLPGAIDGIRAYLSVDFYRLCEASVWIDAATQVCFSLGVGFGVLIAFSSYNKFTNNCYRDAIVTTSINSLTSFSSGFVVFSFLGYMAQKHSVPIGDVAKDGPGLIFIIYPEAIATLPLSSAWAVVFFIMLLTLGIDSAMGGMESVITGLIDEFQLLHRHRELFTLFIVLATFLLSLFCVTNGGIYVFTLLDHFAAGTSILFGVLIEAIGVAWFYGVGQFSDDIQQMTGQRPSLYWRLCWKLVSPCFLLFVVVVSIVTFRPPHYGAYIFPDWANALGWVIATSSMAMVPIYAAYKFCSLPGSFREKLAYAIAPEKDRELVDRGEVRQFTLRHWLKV
Value Type: IC50 (nM)
The response must be a number in nM with no trailing unit.

input: IC50 for CC1=C(c2cccc(O)c2)[C@H](c2ccc(OCCN3CC(CF)C3)cc2)Oc2ccc(O)cc21 ?
output: 390

----------
Each record here notes measured pIC50.
test system: MCF7; test: Antiproliferative activity against human MCF7 cells after 5 days by CellTiter-Glo assay; conditions: MCF7, 120 h
// returns pIC50 (minus log10 of molar concentration), number only

Some compounds with known pIC50 results, for comparison:
Compound | Assay System | Value Measured
CC1=C(c2ccc(F)cc2)[C@H](c2ccc(OCCN3CC(CF)C3)cc2)Oc2ccc(O)cc21 | MCF7 | 9.70
CC1=C(c2ccc(C#N)cc2)C(c2ccc(OCCN3CC(CF)C3)cc2)Oc2ccc(O)cc21 (stereo not given) | MCF7 | 9.52
CC1=C(c2cccc(O)c2)C(c2ccc(OCCN3CC[C@@H](C(F)F)C3)cc2)Oc2ccc(O)cc21 (stereo not given in full) | MCF7 | 9.40
COC[C@@H]1CCN(CCOc2ccc(C3Oc4ccc(O)cc4C(C)=C3c3cccc(O)c3)cc2)C1 (stereo not given in full) | MCF7 | 9.40
CC1=C(c2cccc(O)c2)C(c2ccc(OCCN3CC[C@@H](C#N)C3)cc2)Oc2ccc(O)cc21 (stereo not given in full) | MCF7 | 8.44

Could you now consider this next compound?
input: pIC50 for CC1=C(c2cccc(O)c2)C(c2ccc(OCCN3CCC[C@H]3CF)cc2)Oc2ccc(O)cc21 (stereo not given in full) ?
output: 8.85

----------
experiment: Unbound fraction in mouse plasma; assay type: ADME, cell-free
Value Type: Fu
A bare number is not enough; add the unit after it.

Mol Smiles | Fu
CC1=C(c2cccc(O)c2)[C@H](c2ccc(OC[C@H](C)N3CC[C@@H](C)C3)cc2)Oc2ccc(O)cc21 | 1.6%

input: Fu for CC1=C(c2ccc(F)cc2)[C@H](c2ccc(OCCN3CC(CF)C3)cc2)Oc2ccc(O)cc21 ?
output: 0.4%

input: Fu for CC1=C(c2cccc(O)c2)[C@H](c2ccc(OCCN3CC(CF)C3)cc2)Oc2ccc(O)cc21 ?
output: 1.9%

----------
target: Cytochrome P450 2C9 (Homo sapiens, UniProt P11712)
Sequence (P11712 whole entry): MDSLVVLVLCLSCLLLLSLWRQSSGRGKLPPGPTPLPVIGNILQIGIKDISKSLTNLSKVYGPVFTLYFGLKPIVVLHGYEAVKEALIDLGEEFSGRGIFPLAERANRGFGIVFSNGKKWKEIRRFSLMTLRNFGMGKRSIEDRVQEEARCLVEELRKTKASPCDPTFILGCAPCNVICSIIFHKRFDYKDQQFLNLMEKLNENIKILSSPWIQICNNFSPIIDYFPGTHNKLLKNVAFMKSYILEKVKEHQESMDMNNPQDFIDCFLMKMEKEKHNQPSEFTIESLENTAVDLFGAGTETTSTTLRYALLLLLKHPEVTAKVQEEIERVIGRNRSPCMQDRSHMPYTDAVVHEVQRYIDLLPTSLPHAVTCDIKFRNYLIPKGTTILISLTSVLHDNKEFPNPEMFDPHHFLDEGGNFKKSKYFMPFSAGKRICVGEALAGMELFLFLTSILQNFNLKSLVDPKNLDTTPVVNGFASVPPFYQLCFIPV
Value Type: IC50 (µM)
The response must be a number in µM with no trailing unit.

input: Tell me reported IC50 for CC1=C(c2cccc(O)c2)[C@H](c2ccc(OCCN3CC(CF)C3)cc2)Oc2ccc(O)cc21 , tested with Cytochrome P450 2C9 (Homo sapiens, UniProt P11712).
output: 3.2

----------
test system: MCF7; test: Antiproliferative activity against human MCF7 cells after 5 days by CellTiter-Glo assay; conditions: MCF7, 120 h
Value Type: IC50 (nM)
The response must be a number in nM with no trailing unit.

Some compounds with known IC50 results, for comparison:
Compound | Value Measured
CC1=C(c2cccc(O)c2)C(c2ccc(OCCN3CC(CF)C3)cc2)Oc2ccc(O)cc21 (centres undefined) | 0.2
CC1=C(c2cccc(O)c2)[C@H](c2ccc(OCCN3CC(CF)C3)cc2)Oc2ccc(O)cc21 | 0.1
CC1=C(c2cccc(O)c2)C(c2ccc(OCCN3CC[C@@H](CF)C3)cc2)Oc2ccc(O)cc21 (some centres undefined) | 0.2

input: IC50 for CC1=C(c2cccc(O)c2)C(c2ccc(OC[C@H](C)N3CC(CF)C3)cc2)Oc2ccc(O)cc21 (some centres undefined) ?
output: 0.3
